# viability, T/C annotations
Tested on: 485176-168-R4-J1-PDC spheroids with HUVEC/MSC, viability;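 further: spheroids exposed to compounds for seven days before readout; percent viability relative to DMSO vehicle control wells as 100%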
experimental_protocol: Anticancer human tumor 485176-168-R4-J1-PDC patient-derived pancreatic adenocarcinoma cell line growth inhibition [GQUAD]
stated_conditions: second compound 0.0316 µM; first compound 1 µM; stronger effect = lower value
Description: DNA G-quadruplex Stabilizer Agents in Combinations in Complex Spheroids A high-throughput screen of multi-cell type tumor spheroids was designed to identify active combinations of DNA G-quadruplex stabilizer agents and targeted small molecules. […] Compounds. […] If the clinical Cmax for an agent had not been determined, the highest concentration tested was 10 microM. […]
Kindly answer with a numeric value in %, unit omitted.

// known answers, use as guide
O=c1[nH]cc(F)c(=O)[nH]1 + Cc1[nH]c2ccc(F)cc2c1-c1nc2c3cccnc3c3ncccc3c2[nH]1
46.7
CCCS(=O)(=O)Nc1ccc(F)c(C(=O)c2c[nH]c3ncc(-c4ccc(Cl)cc4)cc23)c1F + Cc1cnc(CNC(=O)c2c(=O)c3ccc(N4CCCN(C)CC4)nc3n3c2sc2ccccc23)cn1
81.8
CC(C)n1c(=O)n(C)c2cnc3cc(F)c(-c4ccc(OCCCN5CCCCC5)nc4)cc3c21 + Cc1[nH]c2ccc(F)cc2c1-c1nc2c3cccnc3c3ncccc3c2[nH]1
87.8

Then there is this compound:
Entry CC(=O)O[C@H]1C(=O)[C@@]2(C)[C@H]([C@H](OC(=O)c3ccccc3)[C@]3(O)C[C@H](OC(=O)[C@H](O)[C@@H](NC(=O)c4ccccc4)c4ccccc4)C(C)=C1C3(C)C)[C@]1(OC(C)=O)CO[C@@H]1C[C@@H]2O + Cc1cnc(CNC(=O)c2c(=O)c3ccc(N4CCCN(C)CC4)nc3n3c2sc2ccccc23)cn1 , viability, T/C reported as 12.7

The values you see were collected from PubChem BioAssay AID2060509.
